target: T1, human PD-L1 on cells (human, UniProt Q9NZQ7 19-290); test: flow cytometry on MDA-MB-231 cells, pH 7.4
T1 construct: Endogenous on MDA-MB-231 cells or transfected into HEK293FF cells (Sino Biological plasmid); the assay field says which; also called native PD-L1 on MDA-MB-231 cells; PD-L1 expressing MDA-MB-231 cells
T1 sequence (Q9NZQ7 19-290 limits assumed): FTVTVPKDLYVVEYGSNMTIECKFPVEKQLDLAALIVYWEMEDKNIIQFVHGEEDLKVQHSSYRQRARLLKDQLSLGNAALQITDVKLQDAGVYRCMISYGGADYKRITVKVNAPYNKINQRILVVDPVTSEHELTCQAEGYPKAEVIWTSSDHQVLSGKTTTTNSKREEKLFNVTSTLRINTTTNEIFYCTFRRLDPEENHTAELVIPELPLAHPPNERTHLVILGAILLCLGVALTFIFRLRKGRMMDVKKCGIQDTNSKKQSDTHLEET
Documented EC50 across a set of binders
The response must be a number in nM with no trailing unit.

Check out these entries, answers already filled in.
8D06 mAb (antibody, V domains shown, Formatted into an IgG1; also called 8D06 IgG1) VH: QVQLVQSGGGVVQPGRSLRLSCAASGFTFSSYGMYWVRQAPGKGLEWVAVISYDGSNKYYADSVKGRFTISRDNSKNTLNLQMNSLRAEDTAVYYCAKGALTHWGVVIGDGMDVWGQGTTVTVSS VL: NFMLTQPHSVSESPGKTVTISCVLSPRTHAGHYYRWYQQRPGSSPTTVIYEDDQRPSGVPDRFSGSIDSSSNSASLTISGLKTEDEADYYCQSFDSTNPWVFGGGTKLTVL; 0.08
8G08 mAb (antibody, V domains shown, Formatted into an IgG1; also called 8G08 IgG1) VH: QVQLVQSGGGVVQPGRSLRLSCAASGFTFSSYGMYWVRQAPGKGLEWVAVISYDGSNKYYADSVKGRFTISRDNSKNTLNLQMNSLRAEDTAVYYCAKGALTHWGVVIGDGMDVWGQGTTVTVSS VL: NFMLTQPHSVSESPGKTVTISCISNDVPASGHYHRWYQQRPGSSPTTVIYEDDQRPSGVPDRFSGSIDSSSNSASLTISGLKTEDEADYYCQSFDSTNPWVFGGGTKLTVL; 0.09
8A04 mAb (antibody, V domains shown, Formatted into an IgG1; also called 8A04 IgG1) VH: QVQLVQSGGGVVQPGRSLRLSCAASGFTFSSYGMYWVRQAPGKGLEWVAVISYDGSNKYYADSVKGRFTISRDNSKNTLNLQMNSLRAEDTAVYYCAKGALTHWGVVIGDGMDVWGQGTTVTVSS VL: NFMLTQPHSVSESPGKTVTISCMRTGTGNKGHYTRWYQQRPGSSPTTVIYEDDQRPSGVPDRFSGSIDSSSNSASLTISGLKTEDEADYYCQSFDSTNPWVFGGGTKLTVL; 0.09
8B06 mAb (antibody, V domains shown, Formatted into an IgG1; also called 8B06 IgG1) VH: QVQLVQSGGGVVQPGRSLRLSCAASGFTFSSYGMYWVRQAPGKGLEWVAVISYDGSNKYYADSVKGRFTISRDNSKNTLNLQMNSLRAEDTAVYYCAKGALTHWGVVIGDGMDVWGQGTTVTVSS VL: NFMLTQPHSVSESPGKTVTISCRETELSRRLHYVRWYQQRPGSSPTTVIYEDDQRPSGVPDRFSGSIDSSSNSASLTISGLKTEDEADYYCQSFDSTNPWVFGGGTKLTVL; 0.12

Then this binder:
Task: Fill blank: measured EC50 of the binder 8D04 mAb (antibody, V domains shown, Formatted into an IgG1; also called 8D04 IgG1) VH: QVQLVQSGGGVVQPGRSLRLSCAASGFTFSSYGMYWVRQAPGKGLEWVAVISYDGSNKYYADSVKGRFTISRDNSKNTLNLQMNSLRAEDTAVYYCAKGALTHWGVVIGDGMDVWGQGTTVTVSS VL: NFMLTQPHSVSESPGKTVTISCRGTGSSFHHKYVRWYQQRPGSSPTTVIYEDDQRPSGVPDRFSGSIDSSSNSASLTISGLKTEDEADYYCQSFDSTNPWVFGGGTKLTVL is ____.
Output: 0.1
